target-system: IRAK4 (Homo sapiens)
Sequence (Q9NWZ3 whole entry): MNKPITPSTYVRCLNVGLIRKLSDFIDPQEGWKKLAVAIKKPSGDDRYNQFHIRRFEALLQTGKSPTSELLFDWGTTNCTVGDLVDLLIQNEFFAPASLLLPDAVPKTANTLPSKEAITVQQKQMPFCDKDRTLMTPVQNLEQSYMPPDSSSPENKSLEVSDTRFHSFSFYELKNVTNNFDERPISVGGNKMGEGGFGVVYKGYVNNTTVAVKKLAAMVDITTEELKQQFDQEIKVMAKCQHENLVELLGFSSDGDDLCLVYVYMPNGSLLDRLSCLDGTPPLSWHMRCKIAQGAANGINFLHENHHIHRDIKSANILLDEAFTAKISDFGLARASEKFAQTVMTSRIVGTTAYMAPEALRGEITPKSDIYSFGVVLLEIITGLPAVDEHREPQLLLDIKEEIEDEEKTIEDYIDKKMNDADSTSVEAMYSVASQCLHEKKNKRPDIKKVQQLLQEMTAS
procedure-details: RBC HotSpot Kinase Assay, IRAK4
Assay type: biochemical
Set-up: purchased Reaction Biology (RBC HotSpot Kinase Assay)
Entries and their IC50 values follow.
// return numeric value only (unit: nM, not printed)

# molecule, target-system, reported-measurement
records = [
    ("COc1cc2ncc(-c3cccc(N[C@@H]4CCCNC4)n3)n2nc1C1(C(F)(F)F)CC1 [Compound 84]", "IRAK4 (Homo sapiens)", 83),
    ("F[C@H]1CNCC[C@@H]1Nc1cccc(-c2cnc3ccc(-c4cnn(C5CC5)c4)nn23)n1 [Compound 7]", "IRAK4 (Homo sapiens)", 52),
]

Then there is this molecule:
Q: Given the molecule COc1cc2ncc(-c3nc(N[C@H]4CNCC[C@@H]4F)c(F)cc3F)n2nc1C1CC1 [Compound 108] , what is its reported IC50?
Result: 0.6

###

System: MOLM14 D835Y cells
procedure-details: MOLM14 D835Y cell viability assay (Cell Titer Glo)
Format: cell-based
particulars: Homo sapiens, MOLM-14, 48 h
property-measured: pIC50
Lab note: report pIC50 as minus log10 of the concentration in molar units, number only.

The following compounds have reported results that may help.
# compound, reported-measurement
measured = [
    ("c1cc(N[C@@H]2CCCNC2)nc(-c2cnc3ccc(-c4cnn5ccccc45)nn23)c1 [Compound 19]", 6.40),
    ("COc1cc2ncc(-c3cccc(N[C@H]4CNC[C@@H]4F)n3)n2nc1C1CC1 [Compound 96]", 7.26),
    ("COc1cc2ncc(-c3cccc(N[C@@H]4CCCNC4)n3)n2nc1C(F)F [Compound 117]", 6.96),
]

Then there is this compound:
Q: # returns recorded pIC50 (system: MOLM14 D835Y cells) for COc1cc2ncc(-c3nc(N[C@H]4CNCC[C@@H]4F)c(F)cc3F)n2nc1C(C)(C)O [Compound 128]
Result: 7.47

###

target-system: FLT3 (Homo sapiens)
Construct: purchased Reaction Biology (RBC HotSpot Kinase Assay)
Sequence (P36888 564-958 limits assumed): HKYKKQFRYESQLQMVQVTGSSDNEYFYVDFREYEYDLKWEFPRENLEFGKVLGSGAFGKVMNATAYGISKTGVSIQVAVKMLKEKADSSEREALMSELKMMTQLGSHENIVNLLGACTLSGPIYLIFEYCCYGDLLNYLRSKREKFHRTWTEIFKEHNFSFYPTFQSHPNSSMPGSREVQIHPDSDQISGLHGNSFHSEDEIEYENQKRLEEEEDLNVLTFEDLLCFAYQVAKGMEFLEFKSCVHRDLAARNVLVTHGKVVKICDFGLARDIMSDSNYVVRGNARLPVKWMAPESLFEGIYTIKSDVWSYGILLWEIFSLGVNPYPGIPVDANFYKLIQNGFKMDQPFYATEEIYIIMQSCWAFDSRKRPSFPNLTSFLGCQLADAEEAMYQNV
procedure-details: RBC HotSpot Kinase Assay, FLT3
Type: biochemical
Source text: This assay uses the isolated kinase enzyme. This assay is very useful for determining competition of the inhibitor for ATP and/or substrates and for measuring the kinetics of enzyme inhibition. […] Unlike kinase binding assays that measure competition for ATP, the HotSpot Kinase Assay is a functional assay that measures catalytic activity; as such it measures relative functional potency regardless of the mechanism of enzyme inhibition. […]
Entries and their log10(IC50) values follow.
The figures below represent log10 of IC50, where IC50 is stated in nM.

The following compounds have reported results that may help.
# compound, target-system, property-measured, reported-measurement
data = [
    ("c1cc(NC2CC3(CNC3)C2)nc(-c2cnc3ccc(-c4cnn(C5CNC5)c4)nn23)c1 [Compound 37]", "FLT3 (Homo sapiens)", "log10(IC50)", 0.85),
    ("c1cc(NC2CC3(CNC3)C2)nc(-c2cnc3ccc(-c4cnn5ccccc45)nn23)c1 [Compound 61]", "FLT3 (Homo sapiens)", "log10(IC50)", 0.00),
    ("COc1cc2ncc(-c3cccc(N[C@H]4CNC[C@@H]4F)n3)n2nc1C1CC1 [Compound 96]", "FLT3 (Homo sapiens)", "log10(IC50)", -0.22),
    ("FC(F)(F)[C@H]1CNC[C@@H]1Nc1cccc(-c2cnc3ccc(-c4cnn(C5CC5)c4)nn23)n1 [Compound 13]", "FLT3 (Homo sapiens)", "log10(IC50)", 0.30),
    ("CC1(C)Cc2c(-c3ccc4ncc(-c5cccc(NC6CNCC6(F)F)n5)n4n3)cnn2C1 (stereo not drawn) [Compound 60]", "FLT3 (Homo sapiens)", "log10(IC50)", 0.30),
]

Q: Given the compound F[C@H]1CNC[C@@H]1Nc1cccc(-c2cnc3ccc(N4CCC4)nn23)n1 [Compound 93] , what is its reported log10(IC50)?
Result: 0.60

Q: Same lookup for F[C@H]1CNC[C@@H]1Nc1cccc(-c2cnc3ccc(N4CCOCC4)nn23)n1 [Compound 95] , please.
Result: 0.60

Q: Same lookup for F[C@H]1CNC[C@@H]1Nc1cccc(-c2cnc3ccc(C4CC4)nn23)n1 [Compound 69] , please.
Result: 0.48

Q: Same lookup for Cn1cc(-c2ccc3ncc(-c4cccc(NC5CC6(CCNC6)C5)n4)n3n2)cn1 (stereo not drawn) [Compound 42] , please.
Result: 0.48

###

Entries and their IC50 values follow.
target-system: IRAK4 (Homo sapiens)
procedure-details: RBC HotSpot Kinase Assay, IRAK4
Type: biochemical
Parameters: purchased Reaction Biology (RBC HotSpot Kinase Assay)

# molecule, target-system, IC50
data = [
    ("COc1cc2ncc(-c3nc(N[C@H]4CNC[C@@H]4F)c(F)cc3F)n2nc1C1CC1", "IRAK4 (Homo sapiens)", "< 0.5 nM"),
    ("COc1cc2ncc(-c3cccc(N[C@H]4CNCC[C@@H]4F)n3)n2nc1-c1cn[nH]c1", "IRAK4 (Homo sapiens)", "< 0.5 nM"),
    ("COc1cc2ncc(-c3cccc(N[C@H]4CNC[C@@H]4F)n3)n2nc1C(C)(O)C(F)(F)F (single isomer, unassigned; fast-eluting) [Compound 133]", "IRAK4 (Homo sapiens)", "< 0.5 nM"),
]

Q: Given the molecule COc1cc2ncc(-c3cccc(N[C@H]4CNC[C@@H]4F)n3)n2nc1C(F)F , what is its reported IC50?
Result: < 0.5 nM

Q: Same lookup for CN(C)c1ccc2ncc(-c3cccc(N[C@H]4CNC[C@@H]4F)n3)n2n1 , please.
Result: 61 nM

Q: Same lookup for F[C@H]1CNCC[C@@H]1Nc1cccc(-c2cnc3ccc(-c4cnn5ccccc45)nn23)n1 , please.
Result: < 0.5 nM

###

Test system: MOLM14 D835Y cells
procedure-details: MOLM14 D835Y cell viability assay (Cell Titer Glo)
Type: cell-based
particulars: Homo sapiens, MOLM-14, 48 h
Entries and their pIC50 values follow.
Lab note: report pIC50 as minus log10 of the concentration in molar units, number only.

# input-smiles, pIC50
data = [
    ("COc1cc2ncc(-c3cc(F)cc(N[C@H]4CNC[C@@H]4F)n3)n2nc1C1CC1", 6.69),
    ("COc1cc2ncc(-c3cccc(N[C@H]4CNCC[C@@H]4F)n3)n2nc1-c1cn[nH]c1", 7.70),
    ("COc1cc2ncc(-c3cccc(N[C@H]4CNCC[C@@H]4F)n3)n2nc1-c1cnn(C(F)F)c1", 6.81),
    ("COc1cc2ncc(-c3cccc(N[C@@H]4CCNC4)n3)n2nc1C1CC1", 7.47),
    ("COc1cc2ncc(-c3nc(N[C@H]4CNCC[C@@H]4F)c(F)cc3F)n2nc1C1CC1", 8.52),
]

Q: # returns recorded pIC50 (system: MOLM14 D835Y cells) for COc1cc2ncc(-c3cccc(N[C@H]4CNCC[C@@H]4F)n3)n2nc1C(F)F
Result: 7.21

###

Entries and their IC50 values follow.
Test system: MOLM14 D835Y cells
procedure-details: MOLM14 D835Y cell viability assay (Cell Titer Glo)
Format: cell-based
particulars: Homo sapiens, MOLM-14, 48 h
// return numeric value only (unit: nM, not printed)

The following compounds have reported results that may help.
# compound, reported-measurement
records = [
    ("COc1cc2ncc(-c3cccc(N[C@H]4CNC[C@@H]4C)n3)n2nc1C1(C(F)(F)F)CC1 [Compound 83]", 259),
    ("COc1cc2ncc(-c3cccc(N[C@@H]4CCNC4)n3)n2nc1C1(C(F)(F)F)CC1 [Compound 81]", 591),
    ("Cn1cc(-c2ccc3ncc(-c4cccc(N[C@H]5CNC[C@@H]5F)n4)n3n2)cn1 [Compound 1]", 60),
    ("F[C@H]1CNC[C@@H]1Nc1cccc(-c2cnc3cc(Cl)cnn23)n1 [Compound 110]", 591),
]

Then there is this compound:
Q: Given the compound F[C@H]1CNC[C@@H]1Nc1cccc(-c2cnc3cc(C4CC4)cnn23)n1 [Compound 111] , what is its reported IC50?
Result: 1010
